Biological target: T1, Flt-1 antigen (species not stated) (Homo sapiens (Human), UniProt P17948 27-656)
T1 construct: also called sFlt-1; soluble Flt-1
T1 sequence (P17948 other isoform, or with tags, fused parts or gaps limits assumed, form in doubt): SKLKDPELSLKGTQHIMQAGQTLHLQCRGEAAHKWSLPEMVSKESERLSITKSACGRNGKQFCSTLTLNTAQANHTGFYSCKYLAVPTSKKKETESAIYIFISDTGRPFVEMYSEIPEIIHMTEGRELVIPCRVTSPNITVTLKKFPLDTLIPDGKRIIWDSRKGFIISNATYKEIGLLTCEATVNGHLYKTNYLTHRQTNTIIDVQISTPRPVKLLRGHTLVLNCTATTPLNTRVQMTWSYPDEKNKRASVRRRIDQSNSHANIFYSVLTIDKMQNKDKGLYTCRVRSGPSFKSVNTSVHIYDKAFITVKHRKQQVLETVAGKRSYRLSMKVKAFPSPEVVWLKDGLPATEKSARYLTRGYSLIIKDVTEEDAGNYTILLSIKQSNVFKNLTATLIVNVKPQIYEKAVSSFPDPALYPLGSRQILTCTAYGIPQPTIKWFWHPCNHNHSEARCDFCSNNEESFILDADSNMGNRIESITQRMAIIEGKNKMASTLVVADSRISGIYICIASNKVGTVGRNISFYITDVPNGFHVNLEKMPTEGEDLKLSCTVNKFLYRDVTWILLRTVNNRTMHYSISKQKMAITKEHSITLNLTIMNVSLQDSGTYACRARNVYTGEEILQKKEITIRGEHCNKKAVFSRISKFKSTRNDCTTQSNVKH
Test: off-rate of Fabs, method not stated
MEASURE: kd IMPROVEMENT (against parent 21B3)

Identify measured kd IMPROVEMENT (against parent 21B3) corresponding to 27G9 Fab (Fab, V domains shown, also called 27G9_VH) VH: EVQLLESGGGLVQPGGSLRLSCAASGFTFRDYSASWVRQAPGKGLEWVSAISWSGDSTYYAESLKGRFTISRDNSKNTLYLQMNSLRAEDTAVYYCAKSWATPIESLYYYGSDYWGKGTLVTVSS VL: SYELTQPLSVSVALGQTAKITCGGNNIGSQTAQWYQQKPGQAPVLVIYANNRRPSGIPERFSGSKSGNTATLTISRAQAEDEADYYCQVWEESTQAIVFGGGTHLTVL
1.3
